- assayed system: Histamine H3 receptor (Cavia porcellus)
Just so you know, the groups by Ki go like this: bin A: < 6 nM; bin B: ≥ 6 nM and < 20 nM; bin C: ≥ 20 nM

[[record]]
test_smiles = "c1nc(CC2CCN(CCCOc3ccc(CN4CCCCC4)nc3)CC2)c[nH]1"
assayed_system = "Histamine H3 receptor (Cavia porcellus)"
assigned_label = "bin B"


Band assignment needed for NC(=O)C1CCN(Cc2ccc(OCCCN3CCC(Cc4c[nH]cn4)CC3)cc2)CC1 please.
bin B

Lab log: c1ncc(CC2CCN(CCCOc3ccc(CCN4CCCCC4)cc3)CC2)[nH]1 — assign Ki category
bin A

Which class is correct for the following compound? O=C(c1ccc(OCCCN2CCC(Cc3cnc[nH]3)CC2)nc1)N1CCCCC1
bin C

Please classify: c1nc(CC2CCN(CCCOc3ccc(N4CCCCC4)cc3)CC2)c[nH]1
bin B

For this compound, which bin applies? O=C(CCOc1ccc(CN2CCCCC2)cc1)N1CCC(Cc2cnc[nH]2)CC1
bin C

Classify this compound: c1ncc(CC2CCN(CCCOc3ccc(N4CCNCC4)cc3)CC2)[nH]1
bin B

Class (by measured Ki) for c1cc(CN2CCCCC2)cc(OCCCN2CCC(Cc3cnc[nH]3)CC2)c1
bin A

Kindly state the category for this compound: FC1(F)CCN(Cc2ccc(OCCCN3CCC(Cc4cnc[nH]4)CC3)cc2)CC1
bin A

###

- assayed system: Cytochrome P450 2D6 (Homo sapiens)
- Sequence (P10635 whole entry): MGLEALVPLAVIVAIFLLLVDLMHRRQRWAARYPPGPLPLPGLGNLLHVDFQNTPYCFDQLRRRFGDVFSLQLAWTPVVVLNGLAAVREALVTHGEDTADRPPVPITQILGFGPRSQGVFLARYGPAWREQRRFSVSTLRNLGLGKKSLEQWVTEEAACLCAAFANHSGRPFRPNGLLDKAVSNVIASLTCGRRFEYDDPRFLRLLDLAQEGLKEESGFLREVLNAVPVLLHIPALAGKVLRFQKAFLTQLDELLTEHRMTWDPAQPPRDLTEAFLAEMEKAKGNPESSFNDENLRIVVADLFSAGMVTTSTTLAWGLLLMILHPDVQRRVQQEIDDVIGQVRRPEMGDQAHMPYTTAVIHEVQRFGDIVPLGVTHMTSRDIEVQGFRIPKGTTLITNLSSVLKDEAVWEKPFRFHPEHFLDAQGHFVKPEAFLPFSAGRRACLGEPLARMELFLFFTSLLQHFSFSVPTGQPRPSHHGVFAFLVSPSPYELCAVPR
- assay protocol: Inhibition of CYP2D6 by supersome assay
- Assay type: ADME
measure name: pIC50
Recall that pIC50 is obtained by taking minus log10 of the concentration measured in molar.

[[record]]
test_smiles = "c1ncc(CC2CCN(CCCOc3ccc(CCN4CCCCC4)cc3)CC2)[nH]1"
experimental_result = 6.00

[[record]]
test_smiles = "O=C(c1ccc(OCCCN2CCC(Cc3c[nH]cn3)CC2)cc1)N1CCCCC1"
experimental_result = 5.70


# get_value(readout='pIC50', item= O=C1CCCCN1Cc1ccc(OCCCN2CCC(Cc3cnc[nH]3)CC2)cc1 )
5.30

###

- assayed system: Cytochrome P450 3A4 (Homo sapiens, UniProt P08684)
- Sequence (P08684 whole entry): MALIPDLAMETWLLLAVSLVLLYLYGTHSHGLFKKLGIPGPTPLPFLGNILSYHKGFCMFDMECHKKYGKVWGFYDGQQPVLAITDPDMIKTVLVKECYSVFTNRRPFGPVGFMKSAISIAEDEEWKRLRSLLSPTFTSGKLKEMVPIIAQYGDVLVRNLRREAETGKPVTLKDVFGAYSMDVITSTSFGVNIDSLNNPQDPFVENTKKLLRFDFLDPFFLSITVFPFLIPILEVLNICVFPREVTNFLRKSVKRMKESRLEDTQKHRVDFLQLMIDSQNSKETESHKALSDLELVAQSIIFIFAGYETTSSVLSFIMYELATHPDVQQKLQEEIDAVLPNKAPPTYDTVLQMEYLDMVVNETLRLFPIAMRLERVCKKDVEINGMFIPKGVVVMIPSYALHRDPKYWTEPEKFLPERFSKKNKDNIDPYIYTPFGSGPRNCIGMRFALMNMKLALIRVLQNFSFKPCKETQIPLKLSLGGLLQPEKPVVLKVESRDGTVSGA
measure name: IC50

[[record]]
test_smiles = "CN(C)CCCOc1ccc(CN2CCCCC2)cc1"
assayed_system = "Cytochrome P450 3A4 (Homo sapiens, UniProt P08684)"
measure_name = "IC50"
experimental_result = "> 30 µM"


Look up IC50 with Cytochrome P450 3A4 (Homo sapiens, UniProt P08684) for this compound: c1ccc(OCCCN2CCC(Cc3c[nH]cn3)CC2)cc1
> 20 µM

###

- assayed system: Histamine H3 receptor (Cavia porcellus)
- assay protocol: Antagonistic activity against histamine H3 receptor in guinea pig ileum
- Format: functional, tissue-based
- test settings: read-out: pA2 (converted)
Catalogue of Kb values
The response must be a number in nM with no trailing unit.

The examples below pair each entry with its known result.
[[record]]
test_smiles = "O=C(Nc1ncccn1)N1CCC(Cc2c[nH]cn2)CC1"
unit_name = "nM"
experimental_result = 25.1

[[record]]
test_smiles = "NC(=O)C1CCN(Cc2ccc(OCCCN3CCC(Cc4c[nH]cn4)CC3)cc2)CC1"
unit_name = "nM"
experimental_result = 25.1

[[record]]
test_smiles = "O=C(c1ccc(OCCCN2CCC(Cc3c[nH]cn3)CC2)cc1)N1CCCCC1"
unit_name = "nM"
experimental_result = 20

[[record]]
test_smiles = "O=C(Nc1nccs1)N1CCC(Cc2cnc[nH]2)CC1"
unit_name = "nM"
experimental_result = 25.1

[[record]]
test_smiles = "c1nc(CC2CCN(CCCOc3ccc(CN4CCCCC4)cc3)CC2)c[nH]1"
unit_name = "nM"
experimental_result = 2.51


Request: Kb, test system Histamine H3 receptor (Cavia porcellus), entry CN(C)CCCOc1ccc(CN2CCC(Cc3cnc[nH]3)CC2)cc1
79.4

What is its Kb for Histamine H3 receptor (Cavia porcellus)? Entry: O=C(c1ccc(OCCCN2CCC(Cc3cnc[nH]3)CC2)nc1)N1CCCCC1
20

Any idea what Kb came out for CCN(CC)Cc1ccc(OCCCN2CCC(Cc3c[nH]cn3)CC2)cc1 on Histamine H3 receptor (Cavia porcellus)?
1.58

Test system Histamine H3 receptor (Cavia porcellus); read-out Kb; what value for CN(C)CCCOc1ccc(CN2CCCCC2)cc1 ?
31.6

###

Measured IC50 of individual entries
- assayed system: Cytochrome P450 2D6 (Homo sapiens)
- assay protocol: Inhibition of CYP2D6 by human liver microsome assay
- Assay type: ADME, microsomes

# annotated cases, reported IC50 shown
[[record]]
test_smiles = "CN(C)CCCOc1ccc(CN2CCC(Cc3cnc[nH]3)CC2)cc1"
measure_name = "IC50"
experimental_result = "> 30 µM"

[[record]]
test_smiles = "O=C(c1ccc(OCCCN2CCC(Cc3cnc[nH]3)CC2)cc1)N1CCNCC1"
measure_name = "IC50"
experimental_result = "> 20 µM"

[[record]]
test_smiles = "c1ncc(CC2CCN(CCCOc3ccc(CN4CCC(N5CCCCC5)CC4)cc3)CC2)[nH]1"
measure_name = "IC50"
experimental_result = "> 30 µM"

[[record]]
test_smiles = "c1ncc(CC2CCN(CCCOc3ccc(N4CCNCC4)cc3)CC2)[nH]1"
measure_name = "IC50"
experimental_result = "> 20 µM"

[[record]]
test_smiles = "CN(C)CCCOc1ccc(CCCN2CCC(Cc3cnc[nH]3)CC2)cc1"
measure_name = "IC50"
experimental_result = "> 30 µM"


Give the measured IC50 of c1nc(CC2CCN(CCCCOc3ccc(CN4CCCCC4)cc3)CC2)c[nH]1 .
> 20 µM

###

- assayed system: Histamine H3 receptor (Cavia porcellus, UniProt Q9JI35)
- Sequence (Q9JI35 whole entry): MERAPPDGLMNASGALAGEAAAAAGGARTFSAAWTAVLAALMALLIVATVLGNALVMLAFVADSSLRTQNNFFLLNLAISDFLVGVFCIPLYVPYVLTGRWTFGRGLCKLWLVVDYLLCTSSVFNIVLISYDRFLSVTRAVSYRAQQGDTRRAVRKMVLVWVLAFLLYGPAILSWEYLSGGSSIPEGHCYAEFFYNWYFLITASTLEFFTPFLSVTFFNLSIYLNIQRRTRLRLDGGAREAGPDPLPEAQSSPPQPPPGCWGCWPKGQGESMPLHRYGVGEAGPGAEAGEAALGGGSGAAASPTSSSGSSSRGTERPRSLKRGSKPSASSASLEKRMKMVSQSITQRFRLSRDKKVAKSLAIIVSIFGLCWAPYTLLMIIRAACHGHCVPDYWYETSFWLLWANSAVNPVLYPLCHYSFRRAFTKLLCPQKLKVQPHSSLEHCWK
- assay protocol: Antagonistic activity against histamine H3 receptor in guinea pig ileum
- Format: functional, tissue-based
- test settings: read-out: pA2 (converted)
measure name: log10 of Kb (log10 of the value in µM)
Each number you see is log10 of Kb, and the unit inside the log is µM.

Solved entries:
[[record]]
test_smiles = "c1cc(CN2CCCCC2)cc(OCCCN2CCC(Cc3cnc[nH]3)CC2)c1"
assayed_system = "Histamine H3 receptor (Cavia porcellus, UniProt Q9JI35)"
experimental_result = -2.40

[[record]]
test_smiles = "c1ncc(CC2CCN(CCCOc3ccc(CCN4CCCCC4)cc3)CC2)[nH]1"
assayed_system = "Histamine H3 receptor (Cavia porcellus, UniProt Q9JI35)"
experimental_result = -2.50


Fill in: log10 of Kb of c1nc(CC2CCN(CCCCOc3ccc(CN4CCCCC4)cc3)CC2)c[nH]1 is ___
-1.80

Any idea what log10 of Kb was measured for Nc1ncc(-c2ccc(OCCCN3CCC(Cc4c[nH]cn4)CC3)cc2)cn1 ?
-1.70

Given the compound c1nc(CC2CCN(CCCOc3ccc(CN4CCCCC4)nc3)CC2)c[nH]1 , what is its reported log10 of Kb?
-2.10

Which measured log10 of Kb value corresponds to O=C(c1ccc(OCCCN2CCC(Cc3cnc[nH]3)CC2)cc1)N1CCNCC1 ?
-1.80

Fill in: log10 of Kb of CN(C)CCCOc1ccc(CCCN2CCC(Cc3cnc[nH]3)CC2)cc1 is ___
-1.30
